assay: in vitro; assay type: in vitro ADME; conditions: human, Caco-2
Assign labels as follows, please: TRUE for Papp A→B at 90 min below 3 ×10⁻⁶ cm/s; FALSE for Papp A→B at 90 min equal to or exceeding 3 ×10⁻⁶ cm/s.

Answered examples (5):
Q: Could you please tell me whether Papp A→B at 90 min recorded for `CCC(=O)O[C@H]1[C@@H](O)[C@](C#N)(c2ccc3c(NC(=O)C(C)C)ncnn23)O[C@@H]1COC(=O)[C@@H](N)C(C)C` is less than 3 ×10⁻⁶ cm/s?
A: FALSE

Q: Could you please tell me whether Papp A→B at 90 min recorded for `CC(=O)OCOC(=O)OC[C@H]1O[C@@](C#N)(c2ccc3c(NC(=O)[C@@H](N)Cc4ccc(F)cc4)ncnn23)[C@H](O)[C@@H]1O` is less than 3 ×10⁻⁶ cm/s?
A: TRUE

Q: Could you please tell me whether Papp A→B at 90 min recorded for `CC(C)C(=O)OC[C@H]1O[C@@](C#N)(c2ccc3c(NC(=O)c4ccccc4)ncnn23)[C@H](O)[C@@H]1O` is less than 3 ×10⁻⁶ cm/s?
A: TRUE

Q: Could you please tell me whether Papp A→B at 90 min recorded for `CC(=O)OC[C@H]1O[C@@](C#N)(c2ccc3c(N)ncnn23)[C@H](O)[C@@H]1OC(=O)C(C)C` is less than 3 ×10⁻⁶ cm/s?
A: TRUE

Q: Could you please tell me whether Papp A→B at 90 min recorded for `CCC(=O)OC[C@H]1O[C@@](C#N)(c2ccc3c(N)ncnn23)[C@H](O)[C@@H]1OC(=O)[C@@H](N)C(C)C` is less than 3 ×10⁻⁶ cm/s?
A: TRUE

***
Q: Could you please tell me whether Papp A→B at 90 min recorded for `CC(C)CC(=O)OC[C@H]1O[C@@](C#N)(c2ccc3c(N)ncnn23)[C@H](O)[C@@H]1OC(=O)C(C)C` is less than 3 ×10⁻⁶ cm/s?
A: FALSE
